Reported values of Kd for individual entries
measured on: T1, HLA-A*0201/β2-microglobulin/NY-ESO peptide complex (human, biotinylated with E. coli biotin ligase at the added recognition sequence (biotinylated form used in the ELISA))
T1 construct: also called HLA/NY-ESO; HLA-A2/NY-ESO
assay name: SPR (Biacore T200), scFv captured by anti-His antibody, HLA/NY-ESO as analyte, single cycle kinetics

{"columns": ["binder", "Kd"],
 "data": [
  ["NYA-0001 (scFv, also called NYA-0001 tag adduct; NY-R119 expressed in a cultured mammalian cell) scFv: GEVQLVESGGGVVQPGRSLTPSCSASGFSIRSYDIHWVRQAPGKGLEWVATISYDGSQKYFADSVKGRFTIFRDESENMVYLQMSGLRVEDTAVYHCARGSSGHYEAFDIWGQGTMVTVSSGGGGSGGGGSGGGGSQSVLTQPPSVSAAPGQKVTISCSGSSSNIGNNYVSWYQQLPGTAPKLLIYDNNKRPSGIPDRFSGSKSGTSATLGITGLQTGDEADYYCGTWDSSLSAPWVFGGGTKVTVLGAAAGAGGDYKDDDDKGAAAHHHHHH", "33.8 nM"],
  ["NYA-2048 (scFv, also called NYA-2048 tag adduct) scFv: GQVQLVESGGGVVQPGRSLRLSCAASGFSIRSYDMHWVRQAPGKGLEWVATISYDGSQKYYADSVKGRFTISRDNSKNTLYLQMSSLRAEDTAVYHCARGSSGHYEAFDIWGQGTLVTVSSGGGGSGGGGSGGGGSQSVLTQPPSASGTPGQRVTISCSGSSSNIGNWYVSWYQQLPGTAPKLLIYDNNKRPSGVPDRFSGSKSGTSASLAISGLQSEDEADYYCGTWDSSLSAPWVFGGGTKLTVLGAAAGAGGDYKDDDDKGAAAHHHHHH", "6.3 nM"],
  ["NYA-2027 (scFv) scFv: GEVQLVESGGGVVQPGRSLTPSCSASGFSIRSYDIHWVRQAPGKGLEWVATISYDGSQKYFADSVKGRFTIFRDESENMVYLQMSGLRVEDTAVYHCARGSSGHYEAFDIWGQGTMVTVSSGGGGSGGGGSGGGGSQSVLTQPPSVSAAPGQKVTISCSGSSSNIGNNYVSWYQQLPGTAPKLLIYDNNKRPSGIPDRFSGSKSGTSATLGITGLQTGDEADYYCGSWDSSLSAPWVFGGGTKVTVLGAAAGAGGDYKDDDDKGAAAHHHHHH", "11.2 nM"],
  ["NYA-1143 (scFv) scFv: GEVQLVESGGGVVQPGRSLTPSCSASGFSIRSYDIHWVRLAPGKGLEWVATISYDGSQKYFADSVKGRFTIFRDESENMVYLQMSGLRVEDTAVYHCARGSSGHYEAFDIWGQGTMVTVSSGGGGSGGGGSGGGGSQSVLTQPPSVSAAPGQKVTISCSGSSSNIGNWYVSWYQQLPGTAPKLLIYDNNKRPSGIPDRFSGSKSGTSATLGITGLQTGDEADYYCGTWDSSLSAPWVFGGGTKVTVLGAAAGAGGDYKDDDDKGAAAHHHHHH", "1 nM"]
]}
